Test system: DA-depleted DAT-KO (DDD) mice
Test: Akinesia test (forelimb steps in 30 s) in DDD mice
Conditions: as E7; 1 h after second dose
measured endpoint: Akinesia (steps) 2 h
Field format: number, assumed steps, no unit text.

Per the record, CC(NC(C)(C)C)C(=O)c1cccc(Cl)c1 (centres unmarked) has Akinesia (steps) 2 h of 29

Per the record, `C[C@@H](N)Cc1ccccc1` has Akinesia (steps) 2 h of 29

---

In this section, each of the molecules is paired with its reported Akinesia (steps) 2 h.
Test system: DA-depleted DAT-KO (DDD) mice
Assay: Akinesia test (forelimb steps in 30 s) in DDD mice
Settings: as E7; 1 h after second dose
Field format: number, assumed steps, no unit text.

CCN[C@@H](C)Cc1cccc(C(F)(F)F)c1 [(+)-Fenfluramine]: 21
CCNC(C)Cc1cccc(C(F)(F)F)c1 (single isomer, unassigned; (-)) [(−)-Fenfluramine]: 28

Let's switch to this molecule now.
Per the record, CCNC(C)Cc1cccc(C(F)(F)F)c1 (racemic) [(±)-Fenfluramine] has Akinesia (steps) 2 h of 32
